Target Desc: Carbonic anhydrase 7 (Homo sapiens)
Sequence (P43166 whole entry, canonical isoform): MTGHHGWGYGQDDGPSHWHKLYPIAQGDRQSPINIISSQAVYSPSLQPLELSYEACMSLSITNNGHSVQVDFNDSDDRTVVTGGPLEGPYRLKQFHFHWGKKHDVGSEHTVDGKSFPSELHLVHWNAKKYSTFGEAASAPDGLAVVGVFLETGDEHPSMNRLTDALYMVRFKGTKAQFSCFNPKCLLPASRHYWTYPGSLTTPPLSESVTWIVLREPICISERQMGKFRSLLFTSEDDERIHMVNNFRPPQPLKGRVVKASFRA
Experimental Protocol: Inhibition of human recombinant carbonic anhydrase7 cytosolic isoform expressed in Escherichia coli BL21 preincubated for 15 mins by stopped-flow CO2 hydration assay
Test Readout: pKi
The quantity pKi is defined as the negative base-10 logarithm of the molar concentration.

The examples below pair each entry with its known result.
NS(=O)(=O)c1ccc(Nc2nc(F)nc(F)n2)cc1    8.21
NS(=O)(=O)c1ccc(CCNc2nc(F)nc(F)n2)cc1    7.66
NS(=O)(=O)c1ccc(CCNc2nc(F)nc(NCC(=O)O)n2)cc1    8.08
NS(=O)(=O)c1ccc(Nc2nc(F)nc(NCCO)n2)cc1    8.07
COC(=O)CNc1nc(F)nc(NCCc2ccc(S(N)(=O)=O)cc2)n1    8.19

Q: For the compound CNc1nc(F)nc(Nc2ccc(S(N)(=O)=O)cc2)n1 , give its measured pKi value.
A: 8.17

Q: For the compound CNc1nc(NC)nc(Nc2ccc(S(N)(=O)=O)cc2)n1 , give its measured pKi value.
A: 7.35

* * *

pKi values for the molecules below.
Target Desc: Carbonic anhydrase 1 (Homo sapiens, UniProt P00915)
Sequence (P00915 whole entry, canonical isoform): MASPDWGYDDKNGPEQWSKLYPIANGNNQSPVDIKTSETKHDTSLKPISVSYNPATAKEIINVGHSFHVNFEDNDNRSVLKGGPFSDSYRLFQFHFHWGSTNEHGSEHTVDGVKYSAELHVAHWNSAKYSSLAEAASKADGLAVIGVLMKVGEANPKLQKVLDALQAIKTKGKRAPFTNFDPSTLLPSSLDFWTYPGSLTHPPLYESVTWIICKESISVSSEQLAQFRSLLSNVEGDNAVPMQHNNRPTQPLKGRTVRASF
Experimental Protocol: Inhibition of human recombinant carbonic anhydrase1 cytosolic isoform expressed in Escherichia coli BL21 preincubated for 15 mins by stopped-flow CO2 hydration assay
The quantity pKi is defined as the negative base-10 logarithm of the molar concentration.

COC(=O)CNc1nc(F)nc(NCCc2ccc(S(N)(=O)=O)cc2)n1    7.09

Q: Lab note: Carbonic anhydrase 1 (Homo sapiens, UniProt P00915) assay, enter pKi for NS(=O)(=O)c1ccc(CCNc2nc(F)nc(NCC(=O)O)n2)cc1 here
A: 6.60

Q: Lab note: Carbonic anhydrase 1 (Homo sapiens, UniProt P00915) assay, enter pKi for CNc1nc(F)nc(Nc2ccc(S(N)(=O)=O)cc2)n1 here
A: 7.05

Q: Lab note: Carbonic anhydrase 1 (Homo sapiens, UniProt P00915) assay, enter pKi for NS(=O)(=O)c1ccc(CCNc2nc(F)nc(F)n2)cc1 here
A: 6.69

Q: Lab note: Carbonic anhydrase 1 (Homo sapiens, UniProt P00915) assay, enter pKi for NS(=O)(=O)c1ccc(Nc2nc(F)nc(NCCO)n2)cc1 here
A: 6.62

Q: Lab note: Carbonic anhydrase 1 (Homo sapiens, UniProt P00915) assay, enter pKi for NS(=O)(=O)c1ccc(Nc2nc(F)nc(F)n2)cc1 here
A: 7.06

* * *

Target Desc: Carbonic anhydrase 4 (Homo sapiens, UniProt P22748)
Sequence (P22748 whole entry, canonical isoform): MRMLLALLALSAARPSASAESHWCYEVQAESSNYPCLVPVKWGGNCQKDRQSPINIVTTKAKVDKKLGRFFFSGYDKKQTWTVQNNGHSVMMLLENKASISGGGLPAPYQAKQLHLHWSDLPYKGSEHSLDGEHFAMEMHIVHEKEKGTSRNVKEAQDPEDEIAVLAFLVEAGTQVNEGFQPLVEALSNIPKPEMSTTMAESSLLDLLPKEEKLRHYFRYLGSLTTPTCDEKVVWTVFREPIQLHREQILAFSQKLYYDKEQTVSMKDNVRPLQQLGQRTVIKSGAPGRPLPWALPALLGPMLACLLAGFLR
Experimental Protocol: Inhibition of human recombinant carbonic anhydrase4 membrane-bound isoform expressed in Escherichia coli BL21 preincubated for 15 mins by stopped-flow CO2 hydration assay
Ki values for the compounds below.
Express your answer in nM, writing the number without its unit.

The examples below pair each entry with its known result.
NS(=O)(=O)c1ccc(CCNc2nc(F)nc(NCC(=O)O)n2)cc1    3660
NS(=O)(=O)c1ccc(CCNc2nc(F)nc(F)n2)cc1    1360

Field: next compound
Q: For the compound COC(=O)CNc1nc(F)nc(NCCc2ccc(S(N)(=O)=O)cc2)n1 , give its measured Ki value.
A: 2740

* * *

Target Desc: UniProtKB P00918
Experimental Protocol: Inhibition of human recombinant carbonic anhydrase2 cytosolic isoform expressed in Escherichia coli BL21 preincubated for 15 mins by stopped-flow CO2 hydration assay
Test Readout: pKi
The quantity pKi is defined as the negative base-10 logarithm of the molar concentration.

NS(=O)(=O)c1ccc(Nc2nc(F)nc(NCCO)n2)cc1    8.26
NS(=O)(=O)c1ccc(Nc2nc(F)nc(F)n2)cc1    8.31
COC(=O)CNc1nc(F)nc(NCCc2ccc(S(N)(=O)=O)cc2)n1    8.25

Q: For the compound CNc1nc(F)nc(Nc2ccc(S(N)(=O)=O)cc2)n1 , give its measured pKi value.
A: 8.27

Q: For the compound NS(=O)(=O)c1ccc(CCNc2nc(F)nc(NCC(=O)O)n2)cc1 , give its measured pKi value.
A: 8.30

Q: For the compound NS(=O)(=O)c1ccc(CCNc2nc(F)nc(F)n2)cc1 , give its measured pKi value.
A: 8.15

* * *

Ki values for the molecules below.
Target Desc: Carbonic anhydrase 9 (Homo sapiens, UniProt Q16790)
Experimental Protocol: Inhibition of human recombinant carbonic anhydrase9 transmembrane isoform expressed in Escherichia coli BL21 preincubated for 15 mins by stopped-flow CO2 hydration assay
Express your answer in nM, writing the number without its unit.

The examples below pair each entry with its known result.
COC(=O)CNc1nc(F)nc(NCCc2ccc(S(N)(=O)=O)cc2)n1    199
NS(=O)(=O)c1ccc(CCNc2nc(F)nc(NCC(=O)O)n2)cc1    214

Q: For the molecule NS(=O)(=O)c1ccc(Nc2nc(F)nc(NCCO)n2)cc1 , give its measured Ki value.
A: 208

Q: For the molecule CNc1nc(F)nc(Nc2ccc(S(N)(=O)=O)cc2)n1 , give its measured Ki value.
A: 228

* * *

Target Desc: Carbonic anhydrase 3 (Homo sapiens, UniProt P07451)
Sequence (P07451 whole entry, canonical isoform): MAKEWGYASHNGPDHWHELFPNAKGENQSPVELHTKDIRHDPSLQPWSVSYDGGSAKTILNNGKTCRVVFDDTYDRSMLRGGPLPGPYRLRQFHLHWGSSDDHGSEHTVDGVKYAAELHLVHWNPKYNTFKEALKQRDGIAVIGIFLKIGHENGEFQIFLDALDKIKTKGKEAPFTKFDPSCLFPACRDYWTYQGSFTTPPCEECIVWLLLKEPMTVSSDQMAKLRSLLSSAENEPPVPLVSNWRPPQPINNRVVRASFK
Experimental Protocol: Inhibition of human recombinant carbonic anhydrase3 cytosolic isoform expressed in Escherichia coli BL21 preincubated for 15 mins by stopped-flow CO2 hydration assay
Test Readout: Ki
Quote the value and follow it with the unit of measurement.

The examples below pair each entry with its known result.
COC(=O)CNc1nc(F)nc(NCCc2ccc(S(N)(=O)=O)cc2)n1    6.86 µM
NS(=O)(=O)c1ccc(CCNc2nc(F)nc(F)n2)cc1    7.01 µM

Field: next compound
Q: For the compound NS(=O)(=O)c1ccc(CCNc2nc(F)nc(NCC(=O)O)n2)cc1 , give its measured Ki value.
A: 9.02 µM

* * *

Ki values for the compounds below.
Target Desc: Carbonic anhydrase 6 (Homo sapiens, UniProt P23280)
Sequence (P23280 whole entry, canonical isoform): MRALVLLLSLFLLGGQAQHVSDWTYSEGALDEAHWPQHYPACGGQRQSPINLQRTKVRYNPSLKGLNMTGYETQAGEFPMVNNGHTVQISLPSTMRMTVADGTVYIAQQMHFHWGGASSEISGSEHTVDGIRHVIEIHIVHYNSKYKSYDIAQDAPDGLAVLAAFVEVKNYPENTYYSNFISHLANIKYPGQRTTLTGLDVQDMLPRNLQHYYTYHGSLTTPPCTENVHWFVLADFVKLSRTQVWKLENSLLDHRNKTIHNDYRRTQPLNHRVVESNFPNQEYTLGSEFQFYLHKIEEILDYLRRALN
Experimental Protocol: Inhibition of human recombinant carbonic anhydrase6 secreted isoform expressed in Escherichia coli BL21 preincubated for 15 mins by stopped-flow CO2 hydration assay
Express your answer in µM, writing the number without its unit.

The examples below pair each entry with its known result.
NS(=O)(=O)c1ccc(CCNc2nc(F)nc(NCC(=O)O)n2)cc1    0.148
NS(=O)(=O)c1ccc(CCNc2nc(F)nc(F)n2)cc1    1.39

Field: next compound
Q: For the compound COC(=O)CNc1nc(F)nc(NCCc2ccc(S(N)(=O)=O)cc2)n1 , give its measured Ki value.
A: 0.167

* * *

Target Desc: Carbonic anhydrase 13 (Homo sapiens)
Sequence (Q8N1Q1 whole entry, canonical isoform): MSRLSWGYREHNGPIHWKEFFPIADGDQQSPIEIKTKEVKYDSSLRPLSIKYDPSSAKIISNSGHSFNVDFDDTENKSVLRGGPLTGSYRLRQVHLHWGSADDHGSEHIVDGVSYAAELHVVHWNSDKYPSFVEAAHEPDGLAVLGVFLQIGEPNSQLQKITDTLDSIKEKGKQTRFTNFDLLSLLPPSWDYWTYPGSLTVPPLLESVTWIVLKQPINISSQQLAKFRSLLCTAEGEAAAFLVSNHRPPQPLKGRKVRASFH
Experimental Protocol: Inhibition of human recombinant carbonic anhydrase13 cytosolic isoform expressed in Escherichia coli BL21 preincubated for 15 mins by stopped-flow CO2 hydration assay
pKi values for the molecules below.
The quantity pKi is defined as the negative base-10 logarithm of the molar concentration.

CNc1nc(NC)nc(Nc2ccc(S(N)(=O)=O)cc2)n1    6.04

Q: For the molecule NS(=O)(=O)c1ccc(CCNc2nc(F)nc(F)n2)cc1 , give its measured pKi value.
A: 6.33

Q: For the molecule COC(=O)CNc1nc(F)nc(NCCc2ccc(S(N)(=O)=O)cc2)n1 , give its measured pKi value.
A: 6.22

Q: For the molecule NS(=O)(=O)c1ccc(Nc2nc(F)nc(F)n2)cc1 , give its measured pKi value.
A: 5.99

Q: For the molecule CNc1nc(F)nc(Nc2ccc(S(N)(=O)=O)cc2)n1 , give its measured pKi value.
A: 6.13

* * *

Target Desc: Carbonic anhydrase 12 (Homo sapiens, UniProt O43570)
Sequence (O43570 whole entry, canonical isoform): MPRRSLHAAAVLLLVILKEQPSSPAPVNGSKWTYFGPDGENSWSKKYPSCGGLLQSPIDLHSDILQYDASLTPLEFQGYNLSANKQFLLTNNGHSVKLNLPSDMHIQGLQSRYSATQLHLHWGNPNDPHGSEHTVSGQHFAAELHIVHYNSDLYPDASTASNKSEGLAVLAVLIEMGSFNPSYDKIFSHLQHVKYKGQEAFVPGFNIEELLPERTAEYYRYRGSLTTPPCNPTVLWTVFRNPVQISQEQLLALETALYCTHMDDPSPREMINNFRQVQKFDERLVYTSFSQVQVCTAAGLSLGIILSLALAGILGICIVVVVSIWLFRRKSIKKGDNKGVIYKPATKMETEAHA
Experimental Protocol: Inhibition of human recombinant carbonic anhydrase12 transmembrane isoform expressed in Escherichia coli BL21 preincubated for 15 mins by stopped-flow CO2 hydration assay
In plain terms, low Ki, meaning strictly below 10 nM, gives T, and everything else gives F.

The examples below pair each entry with its known result.
COC(=O)CNc1nc(F)nc(NCCc2ccc(S(N)(=O)=O)cc2)n1    T
NS(=O)(=O)c1ccc(Nc2nc(F)nc(NCCO)n2)cc1    F

Q: In plain terms, does NS(=O)(=O)c1ccc(CCNc2nc(F)nc(F)n2)cc1 come in under 10 nM for Ki?
A: T

Q: In plain terms, does CNc1nc(F)nc(Nc2ccc(S(N)(=O)=O)cc2)n1 come in under 10 nM for Ki?
A: F

Q: In plain terms, does NS(=O)(=O)c1ccc(CCNc2nc(F)nc(NCC(=O)O)n2)cc1 come in under 10 nM for Ki?
A: T
